Biological target: T1, 4H3865-AA
T1 chain: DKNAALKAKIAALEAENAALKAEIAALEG
Test: two-hybrid library CCmax;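 further: natural log of median RNA to DNA barcode read ratio; higher means stronger binding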
Details: mean of both orientations
Assay readout: interaction score
Respond using a number only.

Consider the following illustrative entries.
DKIAALEAKNAALEAEIAALEAKIAALKG [4H2438-AA]; -1.16
DKNAALEAKIAALKAENAALEAKIAALEG [4H3413-AA]; 0.0208
DENAALKAEIAALKAENAALKAEIAALKG [4H1626-AA]; -0.626
DKIAALKAKNAALKAKIAALKAKNAALKG [4H3056-AA]; 0.0241
DKIAALKAKIAALEAKNAALEAEIAALEG [4H2865-AA]; -1.3
DENAALEAKNAALKAEIAALEAKIAALKG [4H1478-AA]; -1.31

Okay, next one:
Task: What measured interaction score goes with DKIAALEAEIAALKAKNAALEAEIAALKG [4H2162-AA] ?
Result: -1.59
